Biological target: T1, human TIM-3 on CHOK1 stable cell line (CHOK1-hTIM-3) (human, UniProt Q8TDQ0 22-301)
T1 sequence: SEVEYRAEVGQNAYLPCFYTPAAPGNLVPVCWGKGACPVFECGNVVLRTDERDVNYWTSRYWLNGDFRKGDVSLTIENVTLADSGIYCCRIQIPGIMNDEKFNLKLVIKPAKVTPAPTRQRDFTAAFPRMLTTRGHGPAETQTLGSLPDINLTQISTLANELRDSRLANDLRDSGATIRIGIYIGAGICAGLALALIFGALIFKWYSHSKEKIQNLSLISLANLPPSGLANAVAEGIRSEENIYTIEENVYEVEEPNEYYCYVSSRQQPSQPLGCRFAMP
Test: FACS, CHOK1-hTIM-3 cells, 0.013 nM antibody
Mean fluorescence intensity: recorded values
Reply briefly: the number, and no unit.

Please review the following examples before continuing.
[[record]]
binder = "34B6D8 fully human TIM-3 antibody (human IgG4, kappa) (antibody, V domains shown) VH: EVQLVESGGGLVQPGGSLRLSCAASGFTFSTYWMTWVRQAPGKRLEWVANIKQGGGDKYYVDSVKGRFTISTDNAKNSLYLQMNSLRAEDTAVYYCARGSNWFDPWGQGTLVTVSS VL: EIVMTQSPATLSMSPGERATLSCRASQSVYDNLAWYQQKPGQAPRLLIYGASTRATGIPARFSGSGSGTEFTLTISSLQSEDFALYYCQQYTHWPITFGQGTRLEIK"
measured_metric = "Mean fluorescence intensity"
reported_measurement = 9.2

[[record]]
binder = "39E5H1 fully human TIM-3 antibody (human IgG4, kappa) (antibody, V domains shown) VH: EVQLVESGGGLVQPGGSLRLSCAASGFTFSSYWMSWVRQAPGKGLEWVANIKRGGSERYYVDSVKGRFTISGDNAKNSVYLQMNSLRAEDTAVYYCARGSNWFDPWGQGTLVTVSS VL: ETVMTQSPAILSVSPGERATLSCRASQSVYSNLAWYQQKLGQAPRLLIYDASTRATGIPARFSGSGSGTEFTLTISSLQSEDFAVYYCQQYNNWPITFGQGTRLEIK"
measured_metric = "Mean fluorescence intensity"
reported_measurement = 9.2


Could you now look at the following binder, please?
Challenge: // fetch Mean fluorescence intensity given entry 7A4F10 fully human TIM-3 antibody (human IgG4, kappa) (antibody, V domains shown) VH: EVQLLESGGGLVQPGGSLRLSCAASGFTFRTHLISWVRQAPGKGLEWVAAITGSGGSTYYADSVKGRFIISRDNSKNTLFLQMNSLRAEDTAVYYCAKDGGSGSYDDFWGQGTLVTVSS VL: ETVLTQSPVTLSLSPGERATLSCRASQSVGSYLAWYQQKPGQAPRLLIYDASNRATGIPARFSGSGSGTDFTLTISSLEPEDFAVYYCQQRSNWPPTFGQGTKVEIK
Response given: 9.7
